System: MOLP8 cell line
Protocol: MOLP8 CellEvent Caspase-3/7 Green live-cell IncuCyte apoptosis assay
Format: cell-based, human
Protocol Conditions: read-out: MOLP8 Caspase 3/7 AC50 at 22 h; MOLP8 cells, 22 h; averaged values
Method: MCL-1 is a regulator of apoptosis and is highly over-expressed in tumor cells that escape cell death. […] Activation of the apoptotic pathway was measured using the CellEvent™ Caspase-3/7 Green ReadyProbes™ Reagent (Thermo Fisher C10423, C10723). […] Upon activation of caspase-3/7 in apoptotic cells, the DEVD peptide is cleaved and the free dye can bind DNA, generating a bright green fluorescence. […] The live-cell readout on the IncuCyte permits tracking over time of the Caspase activation. […]
Each record here notes measured log10(AC50).
Endpoint Name: log10(AC50) (log10 of the value in nM)

Compound	Meas Value
Cc1c2c(nn1CCN(C)C)CN(C)Cc1cc(n(C)n1)CSc1cc(c3ccccc3c1)OCCCc1c(C(=O)O)n(C)c3c-2c(Cl)ccc13 (single isomer, unassigned) [Compound 21]	3.49
COCCn1nc(C)c2c1CN(C)Cc1cc(n(C)n1)CSc1cc(c3ccccc3c1)OCCCc1c(C(=O)O)n(C)c3c-2c(Cl)ccc13 (single isomer, unassigned) [Compound 26]	3.94
Cc1c2c(nn1CCO)CN(C)Cc1cc(n(C)n1)CSc1cc(c3ccccc3c1)OCCCc1c(C(=O)O)n(C)c3c-2c(Cl)ccc13 (single isomer, unassigned) [Compound 37]	2.75
Cc1nn(CCCN2CCOCC2)c2c1-c1c(Cl)ccc3c(c(C(=O)O)n(C)c13)CCCOc1cc(cc3ccccc13)SCc1cc(nn1C)CN(C)C2 (single isomer, unassigned) [Compound 33]	2.53
Cc1c2c(nn1CCN(C)C)CN(C)Cc1cc(n(C)n1)CSc1cc(c3ccccc3c1)OCCCc1c(C(=O)O)n(C)c3c-2c(Cl)ccc13 (single isomer, unassigned) [Compound 20]	2.52

All values here come from patent US20230021562A1.
